B1: H2-Kb / Ed31 (parent complex)
chain 1: GQQVQQSPASLVLQEGENAELQCNFSTSLNSMQWFYQRPGGSLVSLFYNPSGTKHSGRLTSTTVIKERRSSLHISSSQTTDSGTYLCALEGNYAQGLTFGLGTRVSVFP
chain 2: ETAVFQTPNYHVTQVGNEVSFNCKQTLGHDTMYWYKQDSKKLLKIMFSYNNKQLIVNETVPRRFSPQSSDKAHLNLRIKSVEPEDSAVYLCASRSAGEQYFGPGTRLTVL
chain 3: not shown
chain 4: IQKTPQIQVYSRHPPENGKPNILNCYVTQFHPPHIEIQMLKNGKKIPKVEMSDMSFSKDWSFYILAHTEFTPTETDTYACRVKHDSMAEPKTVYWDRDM
chain 5: SIINFEKL

- Variants of: B1
- assay-notes: % of reporter cells activated (NFAT-GFP), raw; also: test concentration or dose not given here
assay-endpoint: ratio to parent

Guide cases for ratio to parent, answers given:
In [3]: df
Out[3]:
      mutation   assay_endpoint  observed_value
0  chain 5 I3H  ratio to parent           0.183
1  chain 5 S1I  ratio to parent           0.676
2  chain 5 F5I  ratio to parent           0.496
3  chain 5 S1P  ratio to parent           0.658
4  chain 5 I3N  ratio to parent           0.225

(I) chain 5 L8P
(II) chain 5 K7D
(III) chain 5 K7W
(IV) chain 5 I3Q
(V) chain 5 I2S
Rank the items in ascending order with respect to ratio to parent. Answer format: list of labels, ordered as asked.
II, IV, III, I, V

(I) chain 5 F5T
(II) chain 5 I3F
(III) chain 5 K7E
Rank the items in ascending order with respect to ratio to parent. Answer format: list of labels, ordered as asked.
III, II, I

(A) chain 5 S1Q
(B) chain 5 S1N
Hi, I'm comparing two records. Which one has the lower ratio to parent, A or B ? Mark your selection by writing its label.
B
(B: 0.163, A: 0.757)
